# melting point per record follows
VALUE TYPE: melting point

{"MOLECULE": "COc1cc2c(cc1Nc1ncc(Cl)c(Nc3ccc(N(C)C)cc3OC)n1)CCN(CCN1CCOCC1)CC2", "EXPERIMENTAL RESULT": "115 °C"}
{"MOLECULE": "CCCCCCOC(=O)NC(=N)c1ccc(NCc2nc3cc(C(=O)N(CCC(=O)OCC)c4ccccn4)ccc3n2C)cc1", "EXPERIMENTAL RESULT": "126 to 128 °C"}
{"MOLECULE": "Cc1cccc(C(=O)Nc2c[nH]nc2C(=O)NCC(C)(C)CO)n1", "EXPERIMENTAL RESULT": "217 to 218 °C"}
{"MOLECULE": "CC1(C)CCC(C)(C)c2cc(Sc3ccc(C(=O)O)cc3)ccc21", "EXPERIMENTAL RESULT": "187 to 188 °C"}
{"MOLECULE": "Cc1cc2c(s1)Oc1ccccc1N=C2N1CCN(C)CC1", "EXPERIMENTAL RESULT": "132 to 133 °C"}
{"MOLECULE": "CC(C)C(NC(=O)OC(C)(C)C)N1CC(NC(=O)Cc2ccccc2)C1=O (centres undefined)", "EXPERIMENTAL RESULT": "64 to 66 °C"}
{"MOLECULE": "CC(C)C1(C)C(=O)NC2(O)c3ncccc3C(=O)N21 (centres undefined)", "EXPERIMENTAL RESULT": "151 to 153 °C"}
{"MOLECULE": "CCCCCCCNC(=O)Nc1ccc(F)cc1C(=O)NC1CCN(C(c2ccccc2)c2ccccc2)CC1", "EXPERIMENTAL RESULT": "208 to 210 °C"}
{"MOLECULE": "O=C(Cn1c(-c2ccc(Cl)cc2)nc2cccnc21)NCC1CC1", "EXPERIMENTAL RESULT": "228 to 229 °C"}
